Test system: HL-60
Test: Cytotoxicity against human HL60 cells by MTT assay
Format: functional, cell-based
Counter-ions that a name gives are not always drawn.
Overview of reported IC50 across a group of compounds:
Answer in nM, number only, no unit symbol.

For orientation, consider the following solved cases.
[
  {
    "compound": "COc1cccc2c1C(=O)c1c(O)c3c(c(O)c1C2=O)C[C@@](O)(C(=O)CO)C[C@@H]3O[C@H]1C[C@H](N)[C@H](O)[C@H](C)O1 [DOXORUBICIN HYDROCHLORIDE]",
    "measured-on": "HL-60",
    "IC50 (nM)": 76
  },
  {
    "compound": "Cc1cc(=O)cc2c3c1C[C@@H]1[C@@H]4C[C@@H](C)C(CC2)(C(=O)O4)[C@]31O",
    "measured-on": "HL-60",
    "IC50 (nM)": 1240
  }
]

Attention now turns to another entry.
Q: Suppose we examine the compound Cc1cc(=O)cc2c3c1[C@@H]1O[C@H]4C5OC(=O)C(CC2)([C@@H]4C)[C@H]3[C@@]51O ; what IC50 value has been reported?
Result: 464

----------
System: A549
Test: Cytotoxicity against human A549 cells assessed as inhibition of cell viability at 10 uM by SRB assay relative to control
Assay type: functional
Overview of reported inhibition at 10 µM across a group of compounds:

[
  {
    "smiles-data": "Cc1cc(=O)cc2c3c1C[C@@H]1[C@@H]4C[C@@H](C)C(C=C2)(C(=O)O4)[C@]31O",
    "inhibition at 10 µM": "< 50%"
  },
  {
    "smiles-data": "CC1=C[C@H]2C[C@]3(CCC45C(=O)O[C@@H](C[C@H]4C)[C@H]4C[C@H]1[C@@H]3[C@H]45)CO2",
    "inhibition at 10 µM": "< 50%"
  }
]

Q: Suppose we examine the compound C[C@@H]1C[C@@H]2OC(=O)C13CC[C@@]14C[C@@H](OC1=O)[C@H](O)[C@](C)(O)C1=C4[C@@H]3[C@@H]2C1 ; what inhibition at 10 µM value has been reported?
Result: < 50%
